Recorded GRinf by entry
Test system: Mycobacterium tuberculosis Erdman (autoluminescent)
assayDetails: GRinf, maximum normalised growth rate inhibition (unitless (-1 to 1)); higher = less effect (negative = killing)
conditionLabel: in vitro model: valerate; time point: constant (~7 days, model-specific)
Give the value as a plain number.

Below, each entry is followed by its recorded GRinf result.
INSERT INTO results (compound, tgt, valuemeasured) VALUES
  ('NNC(=O)c1ccncc1 [isoniazid] + NC(=O)c1cnccn1 [pyrazinamide]', 'Mycobacterium tuberculosis Erdman (autoluminescent)', 0.208),
  ('NNC(=O)c1ccncc1 [isoniazid] + CO[C@H]1/C=C/O[C@@]2(C)Oc3c(C)c(O)c4c(O)c(c(/C=N/N5CCN(C6CCCC6)CC5)c(O)c4c3C2=O)NC(=O)/C(C)=C\C=C\[C@H](C)[C@H](O)[C@@H](C)[C@@H](O)[C@@H](C)[C@H](OC(C)=O)[C@@H]1C [rifapentine]', 'Mycobacterium tuberculosis Erdman (autoluminescent)', 0.146),
  ('NNC(=O)c1ccncc1 [isoniazid] + CC(=O)NC[C@H]1CN(c2ccc(N3CCOCC3)c(F)c2)C(=O)O1 [linezolid]', 'Mycobacterium tuberculosis Erdman (autoluminescent)', 0.0896);

Query string: Please report the recorded GRinf for CO[C@H]1/C=C/O[C@@]2(C)Oc3c(C)c(O)c4c(O)c(c(/C=N/N5CCN(C6CCCC6)CC5)c(O)c4c3C2=O)NC(=O)/C(C)=C\C=C\[C@H](C)[C@H](O)[C@@H](C)[C@@H](O)[C@@H](C)[C@H](OC(C)=O)[C@@H]1C [rifapentine] + CO[C@H]1/C=C/O[C@@]2(C)Oc3c(C)c(O)c4c(O)c(c(/C=N/N5CCN(C)CC5)c(O)c4c3C2=O)NC(=O)/C(C)=C\C=C\[C@H](C)[C@H](O)[C@@H](C)[C@@H](O)[C@@H](C)[C@H](OC(C)=O)[C@@H]1C .
Result string: 0.136

====

Recorded AUC25 by entry
System: Mycobacterium tuberculosis Erdman (autoluminescent)
assayDetails: AUC25, normalised area under dose response up to IC25 (three-drug combination) (fraction (0-1)); higher = more potent at low dose
conditionLabel: in vitro model: valerate; time point: terminal (~4-5 doublings, model-specific)
Give the value as a plain number.

INSERT INTO measurements (molecule, valuekind, valuemeasured) VALUES
  ('NNC(=O)c1ccncc1 [isoniazid] + CC(=O)NC[C@H]1CN(c2ccc(N3CCOCC3)c(F)c2)C(=O)O1 [linezolid] + CO[C@H]1/C=C/O[C@@]2(C)Oc3c(C)c(O)c4c(O)c(c(/C=N/N5CCN(C6CCCC6)CC5)c(O)c4c3C2=O)NC(=O)/C(C)=C\C=C\[C@H](C)[C@H](O)[C@@H](C)[C@@H](O)[C@@H](C)[C@H](OC(C)=O)[C@@H]1C [rifapentine]', 'AUC25', 0.0444);

From here, focus on the item given below.
Query string: Please report the recorded AUC25 for CC(C)/N=c1\cc2n(-c3ccc(Cl)cc3)c3ccccc3nc-2cc1Nc1ccc(Cl)cc1 [clofazimine] + O=[N+]([O-])c1cn2c(n1)OC[C@@H](OCc1ccc(OC(F)(F)F)cc1)C2 [pretomanid] + CO[C@H]1/C=C/O[C@@]2(C)Oc3c(C)c(O)c4c(O)c(c(/C=N/N5CCN(C6CCCC6)CC5)c(O)c4c3C2=O)NC(=O)/C(C)=C\C=C\[C@H](C)[C@H](O)[C@@H](C)[C@@H](O)[C@@H](C)[C@H](OC(C)=O)[C@@H]1C [rifapentine] .
Result string: 0.106
